Entries and their measured TGI follow.
- System: OVCAR-3 ovarian
- Run description: NCI tumour cell line growth inhibition, 48 h
Form entry: value (µM) — number only.

Here are 5 compounds together with their reported answers.
compound=CN(Cc1ccccc1)C(=NC#N)N(Cc1ccccc1)Cc1ccccc1 meas_value=44.7
compound=CCCCCCCCNc1cc2c3c(c1)CCCN3CCC2 meas_value=5.81
compound="CC(=O)OCCCC(NC(=O)OC(C)(C)C)C(=O)NC(CCCOC(C)=O)C(=O)NC(Cc1ccc([N+](=O)[O-])cc1)C(=O)NCC(=O)OCc1ccccc1 (centres undefined)" meas_value=30.1
compound=CCOC(=O)Nc1ccc2c(c1)/C(=N\NC(N)=S)c1ccccc1-2 meas_value=27.8
compound=CN1CN(c2ccccc2)C2(CCN(Cc3csc4ccccc34)CC2)C1=O meas_value=27.4

Please list TGI recorded for the compound `CCN(CC)c1c(C(=O)/C=C/c2ccc(Cl)cc2)c(-c2ccccc2)nn(C)c1=O`
4.35

Write down TGI measured for item `O=C(NNC(=S)Nc1ccccc1)c1cc(-c2ccccc2)nc2ccccc12`
24.4

Check the records and state TGI for `O=C1C(Cl)=C(Nc2cccc(F)c2)C(=O)N1Cc1ccc(Cl)cc1`
6.84

State its TGI: `C[C@H](NC(=O)[C@@H](C)N)[C@H](Oc1ccc2c(cnn2-c2ccc(F)cc2)c1)c1ccc2c(c1)OCCO2`
6.98

Check the records and state TGI for `CCOC(=O)N1CCN(/[N+]([O-])=N/Oc2ccc([N+](=O)[O-])cc2[N+](=O)[O-])CC1`
1.82

Indicate its recorded TGI; the compound in question is `CCN(Cc1ccc(Cl)cc1)c1ccc(CO)c(Cl)c1`
5.75

Note TGI for the compound shown: `N#CC1(C#N)C2(c3ccccc3)OC(c3ccccc3)(c3cc4ccccc4cc32)C1(C#N)C#N`
28.5

Give me measured TGI, please, for this compound: `N#Cc1ccc(OCc2nc(N)nc(N)c2-c2ccc(Cl)c(Cl)c2)cc1`
38.2

Tell me its TGI given `O=C(CCCCCCNC(=O)c1cnc(N(c2ccccc2)c2ccccc2)nc1)NO` as the entry.
15.3

# return recorded TGI for entry `CC1=NN(c2cccc(Cl)c2)C(=N/c2nc3ccccc3s2)/C1=C\c1ccc(Cl)cc1`
52.5

Where do the numbers come from? From PubChem BioAssay (NCI).
